The measurements presented in this section are drawn from patent US8183236B2.

- Measurement target: HIV-1 integrase (wild-type IN) (Human immunodeficiency virus type 1 group M subtype B)
- Protocol details: HIV-1 integrase 3′-processing assay (32P-labeled 21-mer, gel)
- Assay type: biochemical
- Test settings: wild-type IN 200 nM, 7.5 mM MnCl2; read-out: Inhibition of IN Catalytic Activities IC50 (μM) 3′-processing
# log10 IC50 values compiled below
The base-10 logarithm of IC50, taken with IC50 in µM, is what appears here.

Output reported log10 IC50 of the molecule COCCN1C(=O)/C(=C\c2ccc(OCc3ccc(C(=O)O)cc3)c(OC)c2)SC1=S [OT35] on HIV-1 integrase (wild-type IN) (Human immunodeficiency virus type 1 group M subtype B). 1.61

# lookup: HIV-1 integrase (wild-type IN) (Human immunodeficiency virus type 1 group M subtype B) log10 IC50, key = O=C(CCCN1C(=O)C(=Cc2cccs2)SC1=S)Nc1ccc(O)c(C(=O)O)c1 [Compound X169] 1.64

Give log10 IC50 only, for Cc1ccc(C=C2SC(=S)N(CC(=O)Nc3cc([N+](=O)[O-])ccc3O)C2=O)cc1 [Compound X191] , using HIV-1 integrase (wild-type IN) (Human immunodeficiency virus type 1 group M subtype B) data. 1.92

Under HIV-1 integrase (wild-type IN) (Human immunodeficiency virus type 1 group M subtype B), report log10 IC50 for O=C(CN1C(=O)C(=Cc2ccccc2Cl)SC1=S)Nc1cc([N+](=O)[O-])ccc1O [Compound X194] 1.30

Give the observed log10 IC50 of COc1ccccc1C=C1SC(=S)N(CCC(=O)Nc2ccc(O)cc2)C1=O [Compound X118] for HIV-1 integrase (wild-type IN) (Human immunodeficiency virus type 1 group M subtype B). 2.00
